Consider the following substances; for each one, report its percent inhibition of human Factor XI mRNA.
- Test system: human Factor XI mRNA
- procedure.summary: Dose-dependent inhibition in HepG2 cells, electroporation (Example 5)
- Type: cell-based
- assay.context: 20000 nM, approx. 16 h, relative to untreated control cells
Give the value in % but do not write % after it.

Look up percent inhibition of human Factor XI mRNA: 416999 (antisense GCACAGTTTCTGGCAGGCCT; 2-13-5 gapmer, wing sugar chemistry not given here, further chemistry not given here) [compound 416999] 97

Look up percent inhibition of human Factor XI mRNA: 416858 (antisense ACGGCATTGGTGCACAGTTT; 5-10-5 gapmer, wing sugar chemistry not given here, further chemistry not given here) [compound 416858] 93

Look up percent inhibition of human Factor XI mRNA: 416864 (antisense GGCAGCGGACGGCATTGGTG; 5-10-5 gapmer, wing sugar chemistry not given here, further chemistry not given here) [compound 416864] 94

Look up percent inhibition of human Factor XI mRNA: 416826 (antisense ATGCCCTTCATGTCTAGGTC; 5-10-5 gapmer, wing sugar chemistry not given here, further chemistry not given here) [compound 416826] 97

Look up percent inhibition of human Factor XI mRNA: 416850 (antisense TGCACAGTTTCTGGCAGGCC; 5-10-5 gapmer, wing sugar chemistry not given here, further chemistry not given here) [compound 416850] 96
